# system: FGFR2 (Homo sapiens (Human))
# Sequence (P21802 22-821): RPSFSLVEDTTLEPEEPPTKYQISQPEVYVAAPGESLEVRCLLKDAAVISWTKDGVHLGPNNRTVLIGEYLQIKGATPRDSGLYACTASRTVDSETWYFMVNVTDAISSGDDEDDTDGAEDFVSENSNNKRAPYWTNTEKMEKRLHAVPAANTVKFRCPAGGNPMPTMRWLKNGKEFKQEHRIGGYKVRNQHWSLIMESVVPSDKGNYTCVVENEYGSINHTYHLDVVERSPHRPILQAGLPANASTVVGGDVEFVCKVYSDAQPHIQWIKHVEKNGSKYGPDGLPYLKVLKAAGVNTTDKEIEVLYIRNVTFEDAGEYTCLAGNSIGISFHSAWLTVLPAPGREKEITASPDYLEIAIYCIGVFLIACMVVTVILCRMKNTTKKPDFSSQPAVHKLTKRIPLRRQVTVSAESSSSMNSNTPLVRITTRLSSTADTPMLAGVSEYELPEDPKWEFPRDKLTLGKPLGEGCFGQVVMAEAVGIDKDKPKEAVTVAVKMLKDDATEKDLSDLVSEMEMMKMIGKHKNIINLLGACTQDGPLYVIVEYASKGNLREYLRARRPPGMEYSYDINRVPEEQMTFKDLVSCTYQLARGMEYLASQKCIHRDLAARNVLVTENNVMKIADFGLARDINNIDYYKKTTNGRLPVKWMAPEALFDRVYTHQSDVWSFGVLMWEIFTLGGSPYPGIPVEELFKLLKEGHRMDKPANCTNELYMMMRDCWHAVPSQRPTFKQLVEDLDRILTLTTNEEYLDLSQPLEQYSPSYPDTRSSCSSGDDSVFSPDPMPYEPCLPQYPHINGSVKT
# protocolText: Kinase assay, binding constants (Kd), kinase-tagged T7 phage, qPCR
readoutLabel: Kd

Worked examples follow.
compound	Kd
Cc1cnnc(C)c1[C@@H](C)Oc1ccc2[nH]nc(-c3cnc(N4CCN5C(=O)NCC5C4)c(C#N)c3)c2c1 (stereo partly shown) [Example 325]	1 to 20 nM
Cc1ncc(Cl)c([C@@H](C)Oc2ccc3[nH]nc(-c4ccc(N5CC6(CC(O)C6)C5)nc4)c3c2)c1Cl [Example 227]	1 to 20 nM
COc1cc2[nH]nc(-c3cnc(N4CC5(C4)CN(S(C)(=O)=O)C5)c(C#N)c3)c2cc1O[C@H](C)c1c(Cl)cnc(C)c1Cl [Example 341]	20 to 100 nM
C[C@@H](Oc1ccc2[nH]nc(-c3ccc(N4CC5(CNC5)C4)nc3)c2c1)c1cc(F)cc(F)c1 [Example 169]	20 to 100 nM
C[C@@H](Oc1ccc2[nH]nc(-c3ccc(N4CC5CC(C4)N5)nc3)c2c1)c1c(Cl)cncc1Cl [Example 16]	1 to 20 nM

Sure, the documented Kd for COc1cc2[nH]nc(-c3cnc(N4CC[C@H](C(C)(C)O)C4)c(C#N)c3)c2cc1O[C@H](C)c1c(C)cnnc1C [Example 316] is 20 to 100 nM

Sure, the documented Kd for C[C@@H](Oc1ccc2[nH]nc(-c3cnn(C4CCS(=O)(=O)CC4)c3)c2c1)c1cc(F)cc(F)c1 [Example 171] is 20 to 100 nM
